Here the recorded pKd is given for each entry.
# target-under-test: T1, hPD-L1-His (human, UniProt Q9NZQ7 19-238)
# T1 construct: Bought protein; also called hPD-L1-His (manufactured by Edison); not shown: His tag
# T1 sequence (Q9NZQ7 19-238 limits assumed): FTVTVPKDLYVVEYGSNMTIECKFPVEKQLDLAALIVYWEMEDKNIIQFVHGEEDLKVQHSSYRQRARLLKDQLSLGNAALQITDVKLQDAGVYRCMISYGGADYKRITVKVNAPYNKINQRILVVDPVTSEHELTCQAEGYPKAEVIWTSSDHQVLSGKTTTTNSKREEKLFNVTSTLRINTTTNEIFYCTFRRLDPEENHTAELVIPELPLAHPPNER
# assay-details: SPR (Biacore T200), antibody on Protein A chip, hPD-L1-His injected, 1:1 fit
pKd: −log10 of the molar value.
reported-endpoint: pKd

binder	reported-endpoint	reported-result
7E4-H3K3-IgG1 (antibody, V domains shown) VH: QVQLVQSGAEVVKPGASVKISCKGSGFKFTDYAIHWVRQAPGKSLEWMGVISIYYGEASYNQKFKDKVTLTVDTSASTAYMELSSLRSEDTAIYYCAREDYYGSSSYFDYWGQGTLLTVSS VL: ENVLTQSPSFLSASVGDRVTMTCSASSSVSSSYLHWYQQKSGASPKPLIHRTSNLASGVPSRFSGSGSGTEYTLTISSVQPEDFATYYCQQWSGYPYTFGGGTKLEIK	pKd	7.84
6A11-H3K4-IgG1 (antibody, V domains shown) VH: EVQLVESGGGLVQPGGSRRLSCAASGFTFSSFGMHWVRQAPGKGLEWVAYISSGSNTIYYADTVKGRFTISRDNAKNSLYLQMNSLRAEDTAVYYCTRNGYDGWYAMDYWGQGTTVTVSS VL: EIVLTQSPATLSASPGERATLSCSASSSVSYIHWFQQKPGQSPRRWIYDTSKLASGIPARFSGSGSGTSYTLTISSMEPEDAATYYCQQWSTNPFTFGQGTKLEIKR	pKd	8.19
3F2-H1K3-IgG1 (antibody, V domains shown) VH: QVQLQESGPGLVKPSETLSLTCTVSGYSITSGYNWHWIRQFPGNGLEWMGYIHHSSITNYNPSLKSRITISRDTSKNQFSLKLSSVTAADTATYYCAREGYDYDWFAYWGQGTLVTVSS VL: DIVLTQSPDTQSVTPKESVTLSCRASQSISNNLHWYQQKSHESPKLLIKYASQSISGIPSRFSGSGSGTDFTLTINSVEAEDFAMYFCQQSKSWPFTFGQGTRLEIK	pKd	9.09
23-2A6-mHvKv-IgG1-N297A (antibody, V domains shown) VH: QVQLKESGPGLVAPSQSLSITCTVSGFSLTSYDISWIRQPPGKGLEWLGAIWTGGGTNYNSAFMSRLSISKDNSKSQVFLKMNSLQTDDTAIYYCVRDPYYYAMDYWGQGTSVTVSS VL: DIQMNQSPSSLSASLGDTITITCHASQNLNVWLSWYQQKPGNIPKLLIYKASNLHTGVPSRFSGSGSGTGFTLTISSLQPEDIATYYCQQGQSYPRTFGGGTKLEIK	pKd	8.33
3F2-H3K1-IgG1 (antibody, V domains shown) VH: DVQLQESGPGLVKPSETLSLTCTVSGYSITSGYNWHWIRQFPGNGLEWMGYIHHSSITNYNPSLKSRITISRDTSKNQFSLKLSSVTAEDTATFYCAREGYDYDWFAYWGQGTLVTVSS VL: DIVLTQSPDFQSVTPKEKVTITCRASQSISNNLHWYQQKPDESPKLLIKYASQSISGIPSRFSGSGSGTDFTLTINSVEAEDFAMYFCQQSKSWPFTFGQGTRLEIK	pKd	9.16
6A11-H3K3-IgG1 (antibody, V domains shown) VH: EVQLVESGGGLVQPGGSRRLSCAASGFTFSSFGMHWVRQAPGKGLEWVAYISSGSNTIYYADTVKGRFTISRDNAKNSLYLQMNSLRAEDTAVYYCTRNGYDGWYAMDYWGQGTTVTVSS VL: EIVLTQSPATLSASPGERATLSCSASSSVSYIHWFQQKPGQSPRRWIYDTSKLASGIPARFSGSGSGTDYTLTISSMEPEDFATYYCQQWSTNPFTFGQGTKLEIKR	pKd	8.31
3F2-H4K1-IgG1 (antibody, V domains shown) VH: DVQLQESGPGLVKPSETLSLTCTVSGYSITSGYNWHWIRQFPGNKLEWMGYIHHSSITNYNPSLKSRITISRDTSKNQFFLQLSSVTAEDTATFYCAREGYDYDWFAYWGQGTLVTVSS VL: DIVLTQSPDFQSVTPKEKVTITCRASQSISNNLHWYQQKPDESPKLLIKYASQSISGIPSRFSGSGSGTDFTLTINSVEAEDFAMYFCQQSKSWPFTFGQGTRLEIK	pKd	9.33
3F2-H2K1-IgG1 (antibody, V domains shown) VH: DVQLQESGPGLVKPSETLSLTCTVSGYSITSGYNWHWIRQFPGNGLEWMGYIHHSSITNYNPSLKSRITISRDTSKNQFSLKLSSVTAADTATFYCAREGYDYDWFAYWGQGTLVTVSS VL: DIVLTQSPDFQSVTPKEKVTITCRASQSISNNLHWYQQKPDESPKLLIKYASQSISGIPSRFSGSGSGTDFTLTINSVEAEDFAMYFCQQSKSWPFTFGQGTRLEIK	pKd	9.15
